Overview of recorded In Vitro Activity Compared to Native Peptide (%) vs. GIP (relative titer from cAMP EC50) for various binders
# TEST TARGET: T1, human GIP receptor (human, UniProt P48546 22-466)
# T1 sequence (looked up): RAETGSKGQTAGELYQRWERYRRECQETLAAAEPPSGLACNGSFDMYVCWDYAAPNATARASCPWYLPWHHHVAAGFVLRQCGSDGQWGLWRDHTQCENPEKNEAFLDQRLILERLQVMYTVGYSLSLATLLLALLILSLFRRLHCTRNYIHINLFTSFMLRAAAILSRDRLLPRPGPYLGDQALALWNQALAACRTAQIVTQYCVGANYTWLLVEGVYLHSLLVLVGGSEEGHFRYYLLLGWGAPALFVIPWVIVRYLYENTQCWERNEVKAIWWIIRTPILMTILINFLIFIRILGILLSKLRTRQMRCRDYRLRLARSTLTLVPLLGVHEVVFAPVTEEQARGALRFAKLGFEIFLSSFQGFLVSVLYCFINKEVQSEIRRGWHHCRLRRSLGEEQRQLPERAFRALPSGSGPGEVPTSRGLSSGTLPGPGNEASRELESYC
# ASSAY INFO: cell-based or functional assay
Bridge positions count the residues as written; N and C are the ends. Square brackets hold non-standard residues; d marks the D form. Ends that are not written are not given here. Aib = CC(C)(N)C(=O)O
PARAMETER MEASURED: In Vitro Activity Compared to Native Peptide (%) vs. GIP (relative titer from cAMP EC50)

BINDER: H[Aib]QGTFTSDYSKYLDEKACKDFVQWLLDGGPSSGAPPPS (lactam 16-20) [trigonal agonist of SEQ ID NO: 5]
UNIT TAG: %
READING: 8.8

BINDER: H[Aib]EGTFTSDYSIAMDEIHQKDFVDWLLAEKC (bridge 16-20; not fully specified (bridges)) [trigonal agonist of SEQ ID NO: 35]
UNIT TAG: %
READING: 0.1

BINDER: Y[Aib]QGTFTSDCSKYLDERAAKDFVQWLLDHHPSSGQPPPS (bridge 16-20; not fully specified (bridges); ends not checked) [trigonal agonist of SEQ ID NO: 27]
UNIT TAG: %
READING: 1.6

BINDER: Y[Aib]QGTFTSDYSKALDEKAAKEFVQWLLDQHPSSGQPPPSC (bridge 16-20; not fully specified (bridges)) [trigonal agonist of SEQ ID NO: 44]
UNIT TAG: %
READING: 118

BINDER: Y[Aib]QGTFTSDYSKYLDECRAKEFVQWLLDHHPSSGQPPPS (bridge 16-20; not fully specified (bridges)) [trigonal agonist of SEQ ID NO: 1]
UNIT TAG: %
READING: 22.7

Data origin, for the record: patent US20230285583A1
